Form field: melting point (one value per entry).
assayMetric: melting point

INSERT INTO measurements (chemicalstructure, endpointvalue) VALUES
  ('COc1cc(C(=O)/C=C/c2c(OC)cccc2OC)ccc1OCc1ccccc1', '112.8 to 114.1 °C'),
  ('COc1cccc(OC)c1/C=C/C(=O)c1ccc(Cl)c(Cl)c1', '142.1 to 143.4 °C'),
  ('COc1cccc(OC)c1/C=C/C(=O)c1ccc(C)c(C)c1', '98.9 to 101.1 °C'),
  ('CCOc1ccc(/C=C/C(=O)c2ccc(OC)cc2)cc1', '106.3 to 107.9 °C'),
  ('COc1ccc(C(=O)/C=C/c2ccccc2OC)cc1', '43.2 to 45.5 °C'),
  ('COc1cccc(OC)c1/C=C/C(=O)c1ccc(O)cc1', '189.6 to 191.4 °C'),
  ('COc1cccc(OC)c1/C=C/C(=O)c1ccc(OCc2ccccc2)cc1', '96.6 to 97.8 °C'),
  ('CCOc1ccc(C(=O)/C=C/c2c(OC)cccc2OC)cc1', '99 to 101.2 °C'),
  ('COc1cccc(OC)c1/C=C/C(=O)c1ccc2c(c1)OCO2', '138.6 to 140.4 °C'),
  ('COc1cccc(C(=O)/C=C/c2c(OC)cccc2OC)c1', '93.5 to 95.6 °C'),
  ('COc1cc(C(=O)/C=C/c2c(OC)cccc2OC)ccc1O', '128.7 to 131.2 °C'),
  ('COc1ccc(C(=O)/C=C/c2cc(OC)cc(OC)c2)cc1', '87.6 to 89.1 °C'),
  ('COc1cccc(OC)c1/C=C/C(=O)c1cccc(Cl)c1', '116.5 to 117.2 °C'),
  ('COc1ccc(C(=O)/C=C/c2ccc(Br)cc2)cc1', '153.7 to 155.1 °C'),
  ('CCOc1ccccc1C(=O)/C=C/c1c(OC)cccc1OC', '48.8 to 50.4 °C'),
  ('COc1cccc(OC)c1/C=C/C(=O)c1ccc(Cl)cc1Cl', '111.1 to 112.7 °C'),
  ('COc1cccc(OC)c1/C=C/C(=O)c1cccc(C(F)(F)F)c1', '145.3 to 146.7 °C'),
  ('COc1cccc(OC)c1/C=C/C(=O)c1cccc(C)c1', '102.5 to 103.8 °C'),
  ('COc1ccc(C(=O)/C=C/c2ccc(OC)c(OCc3ccccc3)c2)cc1', '115 to 118.2 °C'),
  ('COc1cccc(OC)c1/C=C/C(=O)c1ccccc1O', '114.2 to 115.9 °C'),
  ('CCOc1cc(OC)ccc1C(=O)/C=C/c1c(OC)cccc1OC', '98.7 to 100.2 °C'),
  ('COc1cccc(OC)c1/C=C/C(=O)c1ccc(C)cc1', '82.7 to 84.5 °C'),
  ('COc1cccc(OC)c1/C=C/C(=O)c1cccc(F)c1', '105.4 to 107.3 °C'),
  ('COc1cccc(OC)c1/C=C/C(=O)c1ccc(Cl)cc1', '107.9 to 109.7 °C'),
  ('COc1ccc(C(=O)/C=C/c2ccc(OC)c(OC)c2OC)cc1', '94.4 to 96.5 °C'),
  ('CCOc1ccc(C(=O)/C=C/c2c(OC)cccc2OC)cc1OC', '105.3 to 107.2 °C'),
  ('COc1ccc(C(=O)/C=C/c2ccc(F)cc2Br)cc1', '98.7 to 101 °C'),
  ('COc1cccc(OC)c1/C=C/C(=O)c1cc(C(F)(F)F)cc(C(F)(F)F)c1', '126.5 to 127.8 °C'),
  ('COc1ccc(C(=O)/C=C/c2cc(OC)ccc2OC)cc1', '54.7 to 56.3 °C'),
  ('COc1cccc(OC)c1/C=C/C(=O)c1cccc(OCc2ccccc2)c1', '108.8 to 110.2 °C'),
  ('COc1cccc(OC)c1/C=C/C(=O)c1cccc(N)c1', '148.6 to 150.3 °C'),
  ('COc1ccc(C(=O)/C=C/c2c(OC)cccc2OC)cc1OC', '120.5 to 122.7 °C'),
  ('COc1ccc(C(=O)/C=C/c2ccc(Br)cc2F)cc1', '122.2 to 123.6 °C'),
  ('COc1ccc(C(=O)/C=C/c2cccc(OC)c2)cc1', '95.7 to 97 °C'),
  ('COc1ccc(C(=O)/C=C/c2c(OC)cccc2OC)c(OCc2ccccc2)c1', '82.2 to 83.6 °C');

* * *

- Tested on: HepG2 cells
- assay: In vitro anti-proliferative SRB assay, HepG2
- Format: cell-based, human
- testParameters: selectivity index, HMLE vs HepG2
assayMetric: SI (CC50 HMLE/IC50 HepG2)

INSERT INTO measurements (chemicalstructure, targetdesc, endpointvalue) VALUES
  ('COc1cccc(OC)c1/C=C/C(=O)c1ccc(O)cc1O', 'HepG2 cells', '>5.8'),
  ('COc1cccc(OC)c1/C=C/C(=O)c1cccc(C(F)(F)F)c1', 'HepG2 cells', '>4.1'),
  ('COc1cccc(OC)c1/C=C/C(=O)c1ccc(C)cc1', 'HepG2 cells', 0.7),
  ('COc1cccc(OC)c1/C=C/C(=O)c1ccccc1', 'HepG2 cells', 0.5),
  ('COc1cccc(OC)c1/C=C/C(=O)c1cccc(C)c1', 'HepG2 cells', 1.3),
  ('COc1cccc(OC)c1/C=C/C(=O)c1cccc(N)c1', 'HepG2 cells', 2.0),
  ('COc1ccc(OC)c(C(=O)/C=C/c2c(OC)cccc2OC)c1', 'HepG2 cells', 1.6),
  ('COc1cccc(OC)c1/C=C/C(=O)c1ccc2c(c1)CCO2', 'HepG2 cells', 0.8),
  ('CCOc1ccccc1C(=O)/C=C/c1c(OC)cccc1OC', 'HepG2 cells', 0.2),
  ('CCOc1cc(OC)ccc1C(=O)/C=C/c1c(OC)cccc1OC', 'HepG2 cells', 0.8),
  ('COc1cccc(OC)c1/C=C/C(=O)c1ccc(C#N)cc1', 'HepG2 cells', 0.6),
  ('COc1cccc(OC)c1/C=C/C(=O)c1ccc(Cl)c(Cl)c1', 'HepG2 cells', 1.5),
  ('COc1cccc(OC)c1/C=C/C(=O)c1ccccc1F', 'HepG2 cells', '>5.6'),
  ('COc1cccc(OC)c1/C=C/C(=O)c1cccc(Br)c1', 'HepG2 cells', 1.2),
  ('COc1cccc(OC)c1/C=C/C(=O)c1ccc(OCc2ccccc2)cc1', 'HepG2 cells', '>4.6'),
  ('COc1cccc(OC)c1/C=C/C(=O)c1cccc(F)c1', 'HepG2 cells', 0.6),
  ('COc1cccc(OC)c1/C=C/C(=O)c1ccc(O)cc1', 'HepG2 cells', 0.9),
  ('COc1ccc(C(=O)/C=C/c2c(OC)cccc2OC)cc1OC', 'HepG2 cells', 1.5),
  ('COc1cccc(OC)c1/C=C/C(=O)c1ccccc1OCc1ccccc1', 'HepG2 cells', 7.6),
  ('COc1cccc(OC)c1/C=C/C(=O)c1ccc2c(c1)OCO2', 'HepG2 cells', 0.8),
  ('COc1ccc(C(=O)/C=C/c2cc(OC)cc(OC)c2)cc1', 'HepG2 cells', 0.4),
  ('COc1cccc(OC)c1/C=C/C(=O)c1ccccc1O', 'HepG2 cells', 1.2),
  ('COc1cccc(OC)c1/C=C/C(=O)c1cccc(Cl)c1', 'HepG2 cells', 0.7),
  ('COc1cccc(OC)c1/C=C/C(=O)c1cccc(O)c1', 'HepG2 cells', 0.9),
  ('COc1ccccc1C(=O)/C=C/c1c(OC)cccc1OC', 'HepG2 cells', 2.0),
  ('CCOc1ccc(C(=O)/C=C/c2c(OC)cccc2OC)cc1OC', 'HepG2 cells', 2.2);

* * *

- Tested on: MCF-7 cells
- assay: In vitro anti-proliferative SRB assay, MCF-7
- Type: cell-based, human
- testParameters: selectivity index, HMLE vs MCF7
assayMetric: SI (CC50 HMLE/IC50 MCF7)

INSERT INTO assay_data (compound, resultcomparator, endpointvalue) VALUES
  ('COc1cccc(OC)c1/C=C/C(=O)c1ccc(O)cc1O [b27]', '>', 4.3),
  ('CCOc1ccc(C(=O)/C=C/c2c(OC)cccc2OC)cc1OC [b16]', '=', 1.9),
  ('COc1cccc(OC)c1/C=C/C(=O)c1ccccc1OCc1ccccc1 [b11]', '=', 5.1),
  ('COc1ccccc1C(=O)/C=C/c1c(OC)cccc1OC [b6]', '=', 0.7),
  ('COc1cccc(OC)c1/C=C/C(=O)c1cccc(F)c1 [b32]', '=', 0.5),
  ('COc1cccc(OC)c1/C=C/C(=O)c1ccc(-c2ccccc2)cc1 [b22]', '=', 0.9);

* * *

- Test system: HepG2 cells
- assay: In vitro anti-proliferative SRB assay, HepG2
- Assay type: cell-based, human
- testParameters: selectivity index, L02 vs HepG2
- Experimental: HepG2 and MCF7 cells were grown in the Eagle’s minimum essential medium with Earle’s balanced salts (MEM-EBSS) medium, HeLa, A549 and L02 cells were grown in Dulbecco’s Modified Eagle Media (DMEM), SW1990 cells were grown in RPMI-1640 medium, and HMLE cell were grown in DMEM/F-12 medium. […] Cells were seeded into 96-well plates (4000 cells/well) and incubated at 37 °C in a humidified 5% CO2 atmosphere. […] Cell viability was evaluated using the sulforhodamine B (SRB) assay as previous described.
# binarize SI (CC50 L02/IC50 HepG2): threshold 2 inclusive, high side fulfilled, low side not fulfilled

INSERT INTO measurements (chemicalstructure, classlabel) VALUES
  ('COc1ccc(C(=O)/C=C/c2c(OC)cccc2OC)c(O)c1', 'fulfilled'),
  ('COc1ccc(C(=O)/C=C/c2cc(OC)cc(OC)c2)cc1', 'not fulfilled'),
  ('COc1cccc(OC)c1/C=C/C(=O)c1cccc(Cl)c1', 'fulfilled'),
  ('COc1cccc(OC)c1/C=C/C(=O)c1ccc(C)c(C)c1', 'not fulfilled'),
  ('COc1cccc(OC)c1/C=C/C(=O)c1cccc(C)c1', 'fulfilled');
